Target entity: T1, human VIP (human)
T1 construct: also called Vasoactive Intestinal Peptide
T1 peptide: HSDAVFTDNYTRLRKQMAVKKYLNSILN
Method description: SPR, Ab immobilised
Observed property: koff

Worked examples follow.
| Binder | koff |
| --- | --- |
| anti-PACAP antibody Ab23 (antibody, human IgG1, kappa, N297A, V domains shown, full-length rabbit/human chimeric antibody; PACAP38 specific) VH: QSVEESGGRLVTPGTPLTLTCTVSGFSLNNYAMSWVRQAPGKGLEWIGIMGVNDITYYASWAKGRFTISKTSTTVDLKMTSLTTEDTATYFCTREIRDDGDSSDKLWGPGTLVTVSS VL: AIKMTQTPSSVSAAVGGTVTINCQASEDIYTNLAWYQQKPGQPPNLLIYDASDLASGVPSRFSGSGDGTQFTLTISAVQCEDAATYYCQGVAWSSNTGYGSAFGGGTEVVVKR | 0.32 s⁻¹ |
| anti-PACAP antibody Ab3.H (antibody, human IgG1, kappa, N297A, V domains shown, humanized form of Ab3, full length) VH: EVQLVESGGGLVQPGGSLRLSCAASGFSFSSSDYMCWVRQAPGKGLEWIGCIDAGSSGDTYFASSAKGRFTISRDNSKNTVYLQMNSLRAEDTAVYFCARHLYGSITFAFGLWGQGTLVTVSS VL: AAQMTQSPSTLSASVGDRVTITCQASQSIGSDLAWYQQKPGKAPKLLIYDASTLASGVPSRFSGSGSGTEFTLTISSLQPDDFATYYCQGTYYSSGWYTAFGGGTKVEIKR | 0.1 s⁻¹ |
| anti-PACAP antibody Ab12.H (antibody, human IgG1, kappa, N297A, V domains shown, humanized form of Ab12, full length) VH: EVQLVESGGGLVQPGGSLRLSCAASGFSLSSYAMGWVRQAPGKGLEWIGDISTYGTTDYASWVYGRFTISRDNSKNTVYLQMNSLRAEDTAVYFCARDYWLSLWGQGTLVTVSS VL: AAQLTQSPSTLSASVGDRVTITCQSSQSVYDNNALAWYQQKPGKAPKLLIYAASTLASGVPSRFSGSGSGTEFTLTISSLQPDDFATYYCLGGYYDPADNAFGGGTKVEIKR | 0.014 s⁻¹ |
| anti-PACAP antibody Ab18 (antibody, human IgG1, kappa, N297A, V domains shown, full-length rabbit/human chimeric antibody) VH: QSVEESGGRLVTPGTPLTLTCTVSGFSLSSAALSWVRQAPGKGLEWIGIIDKGVMSYYASWAKGRFTISKTSSTTVDLKVTSPTTEDTATYFCARGGGEFFIWGQGTLVTVSS VL: AQVLTQTPSSVSAAVGGTVTINCQSSKSVYNNNWLSWYQQKPGQPPKFLIYQASNLASGVPSRFKGSGSGTQFTLTISDLECDDAATYYCAGGYSGNIVGFGGGTEVVVKR | 0.12 s⁻¹ |

Need koff for each of these binders.
1. anti-PACAP antibody Ab17 (antibody, human IgG1, kappa, N297A, V domains shown, full-length rabbit/human chimeric antibody) VH: QSVEESGGRLVTPGTPLTLTCTVSGFSLSSAAMNWVRQAPGKGLEWIGIFDPYSSTYYASWAKGRFTISKTSSTTVDLKMTSPTTEDTATYFCARGGGEFFIWGPGTLVTVSS VL: AQVLTQTPSSVSAAVGGTVTINCQSSQSVYKNKYLSWYQQKVGQPPKFLIYQASNLASGVPSRFKGSGSGTQFTLTISDLECDDAATYYCAGGYSGNMVDFGGGTEVVVKR
2. anti-PACAP antibody Ab4.H (antibody, human IgG1, kappa, N297A, V domains shown, humanized form of Ab4, full length) VH: EVQLVESGGGLVQPGGSLRLSCAASGFSLSSYDMSWVRQAPGKGLEWIGIINTNDDTWYASWVKGRFTISRDNSKNTLYLQMNSLRAEDTAVYYCARISDAYVFDYAYYFTLWGQGTLVTVSS VL: DIQMTQSPSTLSASVGDRVTITCLASQNIYNSLAWYQQKPGKAPKLLIYRASTLASGVPSRFSGSGSGTEFTLTISSLQPDDFATYYCQQGAGADNIGNPFGGGTKVEIKR
3. anti-PACAP antibody Ab15 (antibody, human IgG1, kappa, N297A, V domains shown, full-length rabbit/human chimeric antibody) VH: QSVEASGGHLVTPGTPLTLTCTVSGFSLSSAAMNWVRQAPGKGLEWIGSVDERQNKYYASWAKGRFTISRTSSTTVNLKMTSPTTEDTATYFCARGGGEFFIWGQGTLVTVSS VL: AQVLTQTPSSVSAAVGGTVTINCQSSQSVYSNNRLSWYQQKPGQPPNLLIYEASSLASGVPSRFSGSGSGTQFTLTISDLECDDAATYYCAGAYNTGIYGFGGGTEVVVKR

stdout:
1: 0.017 s⁻¹; 2: 0.024 s⁻¹; 3: 0.13 s⁻¹

stdin: Note koff for the binder shown: anti-PACAP antibody Ab9 (antibody, human IgG1, kappa, N297A, V domains shown, full-length rabbit/human chimeric antibody) VH: EQSGGGAEGGLVKPGGSLKLSCKASGFTISRDYWICWVRQAPGKGLEWIGCISAGGGSTDYANWVNGRFTLSRDIDQSTGCLQLNSLTDADTAMYYCAGNLEIWGQGTLVTVSS VL: AQVLTQTPSSVSAAVGGTVTINCQSSPSIYSGAFLSWFQQKPGQPPKFLIYEASKLASGVPSRFSGSGSGTQFTLTISDVQCDDAATYYCLGFYDCSSVDCHAFGGGTEVVVKR
stdout: 0.1 s⁻¹
